Give pKd for every item shown.
- Target: ERK2 (Homo sapiens, UniProt P28482)
- Sequence (P28482 whole entry): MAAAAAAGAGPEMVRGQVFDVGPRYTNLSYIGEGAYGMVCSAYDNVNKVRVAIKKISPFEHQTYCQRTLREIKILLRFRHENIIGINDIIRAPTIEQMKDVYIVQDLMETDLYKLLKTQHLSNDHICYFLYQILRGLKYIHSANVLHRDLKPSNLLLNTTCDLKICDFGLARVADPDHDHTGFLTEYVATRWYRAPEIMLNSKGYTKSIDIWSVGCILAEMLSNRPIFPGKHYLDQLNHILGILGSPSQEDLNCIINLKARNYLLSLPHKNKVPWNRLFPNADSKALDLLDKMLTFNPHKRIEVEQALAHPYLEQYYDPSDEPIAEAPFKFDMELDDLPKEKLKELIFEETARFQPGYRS
pKd: −log10 of the molar value.

[
  {
    "Compound": "O=C(NC(CO)c1ccccc1)c1ncc(-c2c[nH]c3ncc(N4CCOCC4)cc23)cn1 (stereo in doubt)",
    "pKd": "≥ 8.00"
  },
  {
    "Compound": "C[C@H](CNC(=O)c1ncc(-c2c[nH]c3ncc(N4CCOCC4)cc23)cn1)c1ccccc1",
    "pKd": "≥ 8.00"
  },
  {
    "Compound": "O=C(NCCc1ccccc1)c1ccc(-c2c[nH]c3ncc(N4CCOCC4)cc23)nn1",
    "pKd": "< 7.00"
  },
  {
    "Compound": "c1ccc([C@H]2CN=C(c3ncc(-c4c[nH]c5ncc(N6CCOCC6)cc45)cn3)O2)cc1",
    "pKd": "7.00 to 7.96"
  },
  {
    "Compound": "C[C@@H](Cc1ccccc1)NC(=O)c1ncc(-c2c[nH]c3ncc(N4CCOCC4)cc23)cn1",
    "pKd": "< 7.00"
  },
  {
    "Compound": "c1ccc([C@@H]2CN=C(c3ncc(-c4c[nH]c5ncc(N6CCOCC6)cc45)cn3)O2)cc1",
    "pKd": "7.00 to 7.96"
  },
  {
    "Compound": "CC(NC(=O)c1ncc(-c2c[nH]c3ncc(N4CCO[C@@H](C)C4)cc23)cn1)c1ccccc1 (stereo in doubt)",
    "pKd": "7.00 to 7.96"
  },
  {
    "Compound": "O=C(NCCc1ccccc1Cl)c1ncc(-c2c[nH]c3ncc(N4CCOCC4)cc23)cn1",
    "pKd": "≥ 8.00"
  },
  {
    "Compound": "O=C(c1ncc(-c2c[nH]c3ncc(N4CCOCC4)cc23)cn1)N1CCCC1c1ccccn1 (centres unmarked)",
    "pKd": "< 7.00"
  },
  {
    "Compound": "CC(NC(=O)c1ncc(-c2c[nH]c3ncc(N4CCOCC4)cc23)cn1)c1ccccc1 (stereo in doubt) [Compound 6]",
    "pKd": "≥ 8.00"
  }
]

State recorded pKd for all listed compounds.
1. CC(NC(=O)c1ncc(-c2c[nH]c3ncc(N4CCC45COC5)cc23)cn1)c1ccccc1 (stereo in doubt)
2. C[C@H](Cc1ccccc1)NC(=O)c1ncc(-c2c[nH]c3ncc(N4CCOCC4)cc23)cn1
3. c1ccc([C@@H]2COC(c3ncc(-c4c[nH]c5ncc(N6CCOCC6)cc45)cn3)=N2)cc1
4. CN(Cc1ccccc1)C(=O)c1ncc(-c2c[nH]c3ncc(N4CCOCC4)cc23)cn1
5. O=C(NCc1ccc(C(F)(F)F)cc1)c1ncc(-c2c[nH]c3ncc(N4CCOCC4)cc23)cn1
6. C[C@@H](CNC(=O)c1ncc(-c2c[nH]c3ncc(N4CCOCC4)cc23)cn1)c1ccccc1
7. CCN1C[C@H](c2ccccc2)N=C1c1ncc(-c2c[nH]c3ncc(N4CCOCC4)cc23)cn1

["< 7.00", "≥ 8.00", "< 7.00", "< 7.00", "< 7.00", "7.00 to 7.96", "7.00 to 7.96"]

State recorded pKd for all listed compounds.
1. O=C(NC(c1ccccc1)C1CC1)c1ncc(-c2c[nH]c3ncc(N4CCOCC4)cc23)cn1 (centres unmarked)
2. O=C(NCCc1cccc(F)c1)c1ncc(-c2c[nH]c3ncc(N4CCOCC4)cc23)cn1
3. O=C(NCCc1ccccn1)c1ncc(-c2c[nH]c3ncc(N4CCOCC4)cc23)cn1

1. ≥ 8.00
2. 7.00 to 7.96
3. 7.00 to 7.96

----------
- Test system: drug-sensitive cell lines of Table 4
- Assay name: Cell line growth retardation assay, average over sensitive cohort
- Assay type: cell-based, Human
- Applied conditions: Homo sapiens, 144 h; geometric mean of IC50s over sensitive cohort (Table 4); 6 days growth; read-out: AvgSens IC50
Metric: IC50

[
  {
    "Compound": "CC(NC(=O)c1ncc(-c2c[nH]c3ncc(N4CCO[C@@H](C)C4)cc23)cn1)c1ccccc1 (stereo in doubt) [Compound 37]",
    "Target": "drug-sensitive cell lines of Table 4",
    "Recorded measurement": "> 500 nM"
  },
  {
    "Compound": "CC(NC(=O)c1ncc(-c2c[nH]c3ncc(N4CCC45COC5)cc23)cn1)c1ccccc1 (stereo in doubt) [Compound 43]",
    "Target": "drug-sensitive cell lines of Table 4",
    "Recorded measurement": "> 500 nM"
  },
  {
    "Compound": "Cc1ccccc1CCNC(=O)c1ncc(-c2c[nH]c3ncc(N4CCOCC4)cc23)cn1 [Compound 65]",
    "Target": "drug-sensitive cell lines of Table 4",
    "Recorded measurement": "≤ 250 nM"
  },
  {
    "Compound": "COc1cc(-c2cnc3[nH]cc(-c4cnc(C(=O)NC(C)c5ccccc5)nc4)c3c2)ccn1 (stereo in doubt) [Compound 41]",
    "Target": "drug-sensitive cell lines of Table 4",
    "Recorded measurement": "≤ 250 nM"
  }
]

# input for lookup
Could you please provide reported IC50 for O=C(c1ncc(-c2c[nH]c3ncc(N4CCOCC4)cc23)cn1)N1CCC[C@@H]1c1ccccc1 [Compound 18] ? Thanks!
> 500 nM

----------
Give pIC50 for every item shown.
- Test system: drug-sensitive cell lines of Table 4
- Assay name: Cell line growth retardation assay, average over sensitive cohort
- Format: cell-based, Human
- Applied conditions: Homo sapiens, 144 h; geometric mean of IC50s over sensitive cohort (Table 4); 6 days growth; read-out: AvgSens IC50
pIC50: −log10 of the molar value.

Example cases with answers are listed next.
[
  {
    "Molecule": "C[C@H](NC(=O)c1ncc(-c2c[nH]c3ncc(-c4ccncc4)cc23)cn1)c1ccccc1",
    "Metric": "pIC50",
    "Recorded measurement": "≥ 6.60"
  },
  {
    "Molecule": "CC(NC(=O)c1ncc(-c2c[nH]c3ncc(N4CCOCC4)cc23)cn1)c1ccccc1 (stereo in doubt) [Compound 22]",
    "Metric": "pIC50",
    "Recorded measurement": "< 6.30"
  },
  {
    "Molecule": "C[C@H](NC(=O)c1ncc(-c2c[nH]c3ncc(N4CCOCC4)cc23)cn1)c1ccccc1Cl",
    "Metric": "pIC50",
    "Recorded measurement": "≥ 6.60"
  },
  {
    "Molecule": "c1ccc([C@H]2CN=C(c3ncc(-c4c[nH]c5ncc(N6CCOCC6)cc45)cn3)O2)cc1",
    "Metric": "pIC50",
    "Recorded measurement": "< 6.30"
  },
  {
    "Molecule": "C[C@H](Cc1ccccc1)NC(=O)c1ncc(-c2c[nH]c3ncc(N4CCOCC4)cc23)cn1",
    "Metric": "pIC50",
    "Recorded measurement": "< 6.30"
  },
  {
    "Molecule": "O=C(NC(c1ccccc1)C(F)(F)F)c1ncc(-c2c[nH]c3ncc(N4CCOCC4)cc23)cn1 (stereo in doubt)",
    "Metric": "pIC50",
    "Recorded measurement": "6.30 to 6.60"
  }
]

Could you please provide reported pIC50 for CN(C)CC(NC(=O)c1ncc(-c2c[nH]c3ncc(N4CCOCC4)cc23)cn1)c1ccccc1 (stereo in doubt) ? Thanks!
< 6.30

----------
- Tested on: drug-sensitive cell lines of Table 4
- Assay name: Cell line growth retardation assay, average over sensitive cohort
- Assay type: cell-based, Human
- Applied conditions: Homo sapiens, 144 h; geometric mean of IC50s over sensitive cohort (Table 4); 6 days growth; read-out: AvgSens IC50
Metric: IC50

Example cases with answers are listed next.
[
  {
    "Compound": "O=C(NC(CO)c1ccccc1)c1ncc(-c2c[nH]c3ncc(N4CCOCC4)cc23)cn1 (stereo in doubt)",
    "Metric": "IC50",
    "Recorded measurement": "> 500 nM"
  },
  {
    "Compound": "CC(NC(=O)c1ncc(-c2c[nH]c3ncc(N4CCOCC4)cc23)cn1)c1ccn(C)c1 (centres unmarked)",
    "Metric": "IC50",
    "Recorded measurement": "> 500 nM"
  },
  {
    "Compound": "O=C(NC(c1ccccc1)C1CC1)c1ncc(-c2c[nH]c3ncc(N4CCOCC4)cc23)cn1 (centres unmarked)",
    "Metric": "IC50",
    "Recorded measurement": "251 to 500 nM"
  },
  {
    "Compound": "O=C(c1ncc(-c2c[nH]c3ncc(N4CCOCC4)cc23)cn1)N1CCCC1c1ccccn1 (centres unmarked)",
    "Metric": "IC50",
    "Recorded measurement": "> 500 nM"
  },
  {
    "Compound": "O=C(c1ncc(-c2c[nH]c3ncc(N4CCOCC4)cc23)cn1)N1CCC[C@H]1c1ccccc1",
    "Metric": "IC50",
    "Recorded measurement": "> 500 nM"
  },
  {
    "Compound": "c1ccc([C@H]2COC(c3ncc(-c4c[nH]c5ncc(N6CCOCC6)cc45)cn3)=N2)cc1",
    "Metric": "IC50",
    "Recorded measurement": "> 500 nM"
  }
]

State recorded IC50 for all listed compounds.
1. O=C(NCCc1ccccc1)c1ncc(-c2c[nH]c3ncc(N4CCOCC4)cc23)cn1
2. C[C@H]1N=C(c2ncc(-c3c[nH]c4ncc(N5CCOCC5)cc34)cn2)O[C@H]1c1ccccc1

["251 to 500 nM", "> 500 nM"]
